In this section we review reported MIC values for a set of compounds.
- System: Enterococcus faecalis ATCC29212 B4
- PROTOCOL_DETAILS: MIC determination according to CLSI
- Format: cell-based
- EXPERIMENTAL_CONTEXT: Enterococcus faecalis ATCC29212, strain B4; read-out: MIC

Known MIC results, listed for orientation:
INSERT INTO measurements (compound, experimental_system, result) VALUES
  ('C=C[C@]1(C)C[C@@H](OC(=O)CSc2ccccc2OC)[C@]2(C)C(C)CCC3(CCC(=O)C32)[C@@H](C)[C@@H]1O (stereo partly shown) [Example 12]', 'Enterococcus faecalis ATCC29212 B4', '> 25.6 µg/mL'),
  ('C=C[C@]1(C)C[C@@H](OC(=O)COc2ccccc2O)[C@]2(C)C(C)CCC3(CCC(=O)C32)[C@@H](C)[C@@H]1O (stereo partly shown) [Example 17]', 'Enterococcus faecalis ATCC29212 B4', '> 6.4 µg/mL'),
  ('C=C[C@]1(C)C[C@@H](OC(=O)CSc2ccc(F)cc2F)[C@]2(C)C(C)CCC3(CCC(=O)C32)[C@@H](C)[C@@H]1O (stereo partly shown) [Example 6]', 'Enterococcus faecalis ATCC29212 B4', '> 25.6 µg/mL'),
  ('C=C[C@]1(C)C[C@@H](OC(=O)CSc2cccc(OC)c2)[C@]2(C)C(C)CCC3(CCC(=O)C32)[C@@H](C)[C@@H]1O (stereo partly shown) [Example 10]', 'Enterococcus faecalis ATCC29212 B4', '> 25.6 µg/mL'),
  ('C=C[C@]1(C)C[C@@H](OC(=O)CSc2ccccc2F)[C@]2(C)C(C)CCC3(CCC(=O)C32)[C@@H](C)[C@@H]1O (stereo partly shown) [Example 3]', 'Enterococcus faecalis ATCC29212 B4', '> 25.6 µg/mL'),
  ('C=C[C@]1(C)C[C@@H](OC(=O)CSc2cccc(C)c2)[C@]2(C)C(C)CCC3(CCC(=O)C32)[C@@H](C)[C@@H]1O (stereo partly shown) [Example 14]', 'Enterococcus faecalis ATCC29212 B4', '> 6.4 µg/mL');

q: Any idea what MIC came out for C=C[C@]1(C)C[C@@H](OC(=O)CSc2cccc(F)c2)[C@]2(C)C(C)CCC3(CCC(=O)C32)[C@@H](C)[C@@H]1O (stereo partly shown) [Example 1] on Enterococcus faecalis ATCC29212 B4?
a: 3.2 µg/mL
